test system: microorganisms; experiment: Peptides having multiple activities (targeting/binding, antimicrobial, growth or phenotype altering)
VALUE TYPE: Activities

PF-396: peptide having multiple activities (LIYTILASLGVLTVLQAILGREPKAVKA; Peptide with targeting and/or antimicrobial activity)
G B
PF-577: peptide having multiple activities (chain 1 PFETRESFRVPVIGILGGWDYFMHP; chain 2 PFETRESFRVPVIGILGGWDYFMHP; Peptide with targeting and/or antimicrobial activity)
G B
FESKILNASKELDKEKKVNTALSFNSHQDFAKAYQNGKI [PF-606]
G M

###

test system: MRSA; assay: Kill or inhibit growth/proliferation; morphology, biofilm and growth disruption (Tables 5, 6); format: cell-based, Methicillin-resistant Staphylococcus aureus; set-up: key: A: Peptide aggregates; B: Less hyphal formation; Clumps; Diffuse clumps and small polyps; F: Diffuse growth; H: Thin; I: Growth inhibition; Microcolony formation; Rippled; Small polyps; Thick; W: Halo formation on top, microlonies on bottom; further: test concentration or dose not given here
VALUE TYPE: Organism, effect

PF-453: peptide having multiple activities (chain 1 IIQDIAHAFGY; chain 2 IIQDIAHAFGY; Peptide with targeting and/or antimicrobial activity)
MRSA (C)
PF-564: peptide having multiple activities (chain 1 TIILNDQINSLQERLNKLNAETDRR; chain 2 TIILNDQINSLQERLNKLNAETDRR; Peptide with targeting and/or antimicrobial activity)
MRSA (C)
PF-427: peptide having multiple activities (YVLEYHGLRATQDVDAFMAL; Peptide with targeting and/or antimicrobial activity)
MRSA (C)

###

test system: S. pneumoniae; assay: Kill or inhibit growth/proliferation; morphology, biofilm and growth disruption (Tables 5, 6); assay type: cell-based, Streptococcus pneumoniae; set-up: key: A: Peptide aggregates; B: Less hyphal formation; Clumps; Diffuse clumps and small polyps; F: Diffuse growth; H: Thin; I: Growth inhibition; Microcolony formation; Rippled; Small polyps; Thick; W: Halo formation on top, microlonies on bottom; further: test concentration or dose not given here
VALUE TYPE: Organism, effect

PF-605: peptide having multiple activities (HYRWNTQWWKY; Peptide with targeting and/or antimicrobial activity)
S. pneumoniae (D)
PF-634: peptide having multiple activities (chain 1 MPKARPVNHNKKKSKITIKSNFTLFYMFNP; chain 2 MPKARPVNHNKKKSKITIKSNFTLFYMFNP; Peptide with targeting and/or antimicrobial activity)
S. pneumoniae (D)

###

system: microorganisms (e.g., bacteria, yeasts, fungi); assay: Targeting peptide binding to target microorganisms (Table 3); conditions: peptide binding in aqueous buffers varied by peptide solubility; preferably 1x PBS
VALUE TYPE: Target(s) (microorganisms bound by the targeting peptide)

PF670 (TVIVAPMHSGV; Peptide with targeting and/or antimicrobial activity)
Mycobacteria spp
PF-792 (ALHASGIQAI; Peptide with targeting and/or antimicrobial activity)
S. mutans
PF-796 (YTQSNIPTAYALMLSNKDSI; Peptide with targeting and/or antimicrobial activity)
S. mutans
PF-680 (chain 1 ADPHPTTGI; chain 2 ADPHPTTGI; Peptide with targeting and/or antimicrobial activity)
Mycobacteria spp

###

system: microorganisms; assay: Peptides having multiple activities (targeting/binding, antimicrobial, growth or phenotype altering)
Ends that are not written are not given here.
VALUE TYPE: Activities

For orientation, consider the following solved cases.
MGIIAGIIKVIKSLIEQFTGK [PF-007]
G B
FELVDWLETNLGKILKSKSA-NH2 [PF-522]
G B M
RESKLIAMADMIRRRI-NH2 [PF-545]
G B M
PF-637: peptide having multiple activities (chain 1 SRIKQDARSVRKYDRIGIFFYSFKSA; chain 2 SRIKQDARSVRKYDRIGIFFYSFKSA; Peptide with targeting and/or antimicrobial activity)
G B

So, TKKIELKRFVDAFVKKSYENYILERELKKLIKAINEELPTK [PF-600] ? Its Activities was G B M

So, ALCSVIKAIELGIINVHLQ [PF-366] ? Its Activities was G B

So, PF-076: peptide having multiple activities (LYQYELLSKEEYLKCTLIINQRRNEQK; Peptide with targeting and/or antimicrobial activity) ? Its Activities was G B

So, PF-043: peptide having multiple activities (chain 1 MIKNETAYQMNELLVIRSAYAK; chain 2 MIKNETAYQMNELLVIRSAYAK; Peptide with targeting and/or antimicrobial activity) ? Its Activities was G B

So, PF-433: peptide having multiple activities (MRKEFHNVLSSGQLLADKRPARDYNRK; Peptide with targeting and/or antimicrobial activity) ? Its Activities was G B

So, PF-393: peptide having multiple activities (chain 1 DLVQSILSEFKKSG; chain 2 DLVQSILSEFKKSG; Peptide with targeting and/or antimicrobial activity) ? Its Activities was G B

So, PF-C180: peptide having multiple activities (TVEELDKAFTWGAAAALAIGVIAINVGLAAGYCYNNNDVF; Peptide with targeting and/or antimicrobial activity) ? Its Activities was G B

So, PF-564: peptide having multiple activities (chain 1 TIILNDQINSLQERLNKLNAETDRR; chain 2 TIILNDQINSLQERLNKLNAETDRR; Peptide with targeting and/or antimicrobial activity) ? Its Activities was G B
